# System: PC-3
# RUN DESCRIPTION: Cytotoxicity against human PC-3 cells assessed as cell growth inhibition
# Format: functional, cell-based
READOUT TYPE: IC50 (nM)
Report as a plain number; the unit nM is understood.

COMPOUND: Nc1ncnc2c1ccn2[C@@H]1O[C@H](CO)[C@@H](O)[C@H]1O [TUBERCIDIN]
IC50, nM: 76

Record COc1ccc(NC(=O)C(=O)c2cn(CC(P(=O)(O)O)P(=O)(O)O)c3ccccc23)cc1 . Reported IC50: 7540

Field IC50 (entry O=C(Nc1ccncc1)C(=O)c1cn(Cc2ccc(Cl)cc2)c2ccccc12 [INDIBULIN] ) reads 40

---

# RUN DESCRIPTION: Aqueous solubility of the compound at physiological pH by H-NMR analysis
# Assay type: physicochemical
# CONDITION SUMMARY: aqueous solution
READOUT TYPE: solubility
Field note: include the unit after the figure.

Per the records, this compound ( COc1ccc(NC(=O)C(=O)c2cn(CC(P(=O)([O-])[O-])P(=O)([O-])[O-])c3ccccc23)cc1.[Na+].[Na+].[Na+].[Na+] ) has solubility equal to 10000 µg/mL
